# Assay Info: Study 2-Part 2: methotrexate PK alone or with Compound 1 in subjects with RA
# Format: in vivo
# Settings: human, urine and plasma, Placebo group, Day 1
Parameter Measured: CL renal (mL/min)
Reply with just the number (in mL/min).

Return reported CL renal; argument: CN(Cc1cnc2nc(N)nc(N)c2n1)c1ccc(C(=O)N[C@@H](CCC(=O)O)C(=O)O)cc1 [methotrexate] 72

* * *

# Assay Info: Study 2-Part 2: methotrexate PK alone or with Compound 1 in subjects with RA
# Format: in vivo
# Settings: human, plasma, 24 mg, Compound 1 24 mg BID Group, Day 1 (alone)
Parameter Measured: Tmax (h)
Reply with just the number (in h).

Return reported Tmax; argument: CN(Cc1cnc2nc(N)nc(N)c2n1)c1ccc(C(=O)N[C@@H](CCC(=O)O)C(=O)O)cc1 [methotrexate] 3

* * *

# Assay Info: clinical
# Settings: human, plasma, oral, 3 mg
Parameter Measured: AUC(0-t) (ng·h/mL)
Reply with just the number (in ng·h/mL).

Return reported AUC(0-t); argument: CC[C@@H]1CN(C(=O)NCC(F)(F)F)C[C@@H]1c1cnc2cnc3[nH]ccc3n12 78.3

* * *

# Assay Info: Study 2-Part 2: methotrexate PK alone or with Compound 1 in subjects with RA
# Format: in vivo
# Settings: human, plasma, 6 mg, Compound 1 6 mg BID Group, Day 1 (alone)
Parameter Measured: Tmax (h)
Reply with just the number (in h).

Return reported Tmax; argument: CN(Cc1cnc2nc(N)nc(N)c2n1)c1ccc(C(=O)N[C@@H](CCC(=O)O)C(=O)O)cc1 [methotrexate] 2.5

* * *

# Assay Info: Study 2-Part 2: methotrexate PK alone or with Compound 1 in subjects with RA
# Assay type: in vivo
# Settings: human, urine and plasma, 12 mg, Compound 1 12 mg BID Group, Day 29 (with Compound 1)
Parameter Measured: CL renal (mL/min)
Reply with just the number (in mL/min).

Return reported CL renal; argument: CN(Cc1cnc2nc(N)nc(N)c2n1)c1ccc(C(=O)N[C@@H](CCC(=O)O)C(=O)O)cc1 [methotrexate] 79.7

* * *

# Assay Info: clinical
# Settings: human, urine and plasma, oral, 12 mg
Parameter Measured: CL renal (mL/min)
Reply with just the number (in mL/min).

Return reported CL renal; argument: CC[C@@H]1CN(C(=O)NCC(F)(F)F)C[C@@H]1c1cnc2cnc3[nH]ccc3n12 162

* * *

# Assay Info: clinical
# Settings: human, urine and plasma, oral, 12 mg, CLr, 12 mg BID, Day 29, subjects with RA
Parameter Measured: CL renal (mL/min)
Reply with just the number (in mL/min).

Return reported CL renal; argument: CC[C@@H]1CN(C(=O)NCC(F)(F)F)C[C@@H]1c1cnc2cnc3[nH]ccc3n12 82.7

* * *

# Assay Info: clinical
# Settings: human, plasma, oral, 3 mg
Parameter Measured: half-life (h)
Reply with just the number (in h).

Return reported half-life; argument: CC[C@@H]1CN(C(=O)NCC(F)(F)F)C[C@@H]1c1cnc2cnc3[nH]ccc3n12 [Compound 1] 3.2

* * *

# Assay Info: clinical
# Settings: human, urine and plasma, oral, 24 mg, CLr, 24 mg BID, Day 28, subjects with RA
Parameter Measured: CL renal (mL/min)
Reply with just the number (in mL/min).

Return reported CL renal; argument: CC[C@@H]1CN(C(=O)NCC(F)(F)F)C[C@@H]1c1cnc2cnc3[nH]ccc3n12 105

* * *

# Assay Info: Study 2-Part 2: methotrexate PK alone or with Compound 1 in subjects with RA
# Format: in vivo
# Settings: human, urine and plasma, 6 mg, Compound 1 6 mg BID Group, Day 1 (alone)
Parameter Measured: CL renal
Answer with the number, then the unit.

Return reported CL renal; argument: CN(Cc1cnc2nc(N)nc(N)c2n1)c1ccc(C(=O)N[C@@H](CCC(=O)O)C(=O)O)cc1 [methotrexate] 110 mL/min

* * *

# Assay Info: Study 2-Part 2: methotrexate PK alone or with Compound 1 in subjects with RA
# Assay type: in vivo
# Settings: human, plasma, 12 mg, Compound 1 12 mg BID Group, Day 29 (with Compound 1)
Parameter Measured: Tmax (h)
Reply with just the number (in h).

Return reported Tmax; argument: CN(Cc1cnc2nc(N)nc(N)c2n1)c1ccc(C(=O)N[C@@H](CCC(=O)O)C(=O)O)cc1 [methotrexate] 2.5

* * *

# Assay Info: Study 2-Part 2: methotrexate PK alone or with Compound 1 in subjects with RA
# Format: in vivo
# Settings: human, urine and plasma, 24 mg, Compound 1 24 mg BID Group, Day 1 (alone)
Parameter Measured: CL renal (mL/min)
Reply with just the number (in mL/min).

Return reported CL renal; argument: CN(Cc1cnc2nc(N)nc(N)c2n1)c1ccc(C(=O)N[C@@H](CCC(=O)O)C(=O)O)cc1 [methotrexate] 124

* * *

# Assay Info: clinical
# Settings: human, plasma, oral, 48 mg
Parameter Measured: AUC(0-t) (ng·h/mL)
Reply with just the number (in ng·h/mL).

Return reported AUC(0-t); argument: CC[C@@H]1CN(C(=O)NCC(F)(F)F)C[C@@H]1c1cnc2cnc3[nH]ccc3n12 [Compound 1] 1030

* * *

# Assay Info: Study 2-Part 2: methotrexate PK alone or with Compound 1 in subjects with RA
# Type: in vivo
# Settings: human, urine and plasma, Placebo group, Day 29
Parameter Measured: CL renal
Answer with the number, then the unit.

Return reported CL renal; argument: CN(Cc1cnc2nc(N)nc(N)c2n1)c1ccc(C(=O)N[C@@H](CCC(=O)O)C(=O)O)cc1 [methotrexate] 96.7 mL/min

* * *

# Assay Info: clinical
# Settings: human, urine and plasma, oral, 6 mg, CLr, 6 mg BID, Day 28, subjects with RA
Parameter Measured: CL renal (mL/min)
Reply with just the number (in mL/min).

Return reported CL renal; argument: CC[C@@H]1CN(C(=O)NCC(F)(F)F)C[C@@H]1c1cnc2cnc3[nH]ccc3n12 116

* * *

# Assay Info: clinical
# Settings: human, urine and plasma, oral, 3 mg
Parameter Measured: CL renal (mL/min)
Reply with just the number (in mL/min).

Return reported CL renal; argument: CC[C@@H]1CN(C(=O)NCC(F)(F)F)C[C@@H]1c1cnc2cnc3[nH]ccc3n12 [Compound 1] 125

* * *

# Assay Info: Hygroscopicity / moisture sorption isotherm of solid state forms
# Assay type: physicochemical
# Settings: general statement on the solid state form
Parameter Measured: hygroscopicity

Return reported hygroscopicity; argument: CC[C@@H]1CN(C(=O)NCC(F)(F)F)C[C@@H]1c1cnc2cnc3[nH]ccc3n12 [Amorphous Freebase] hygroscopic

Return reported hygroscopicity; argument: CCC1CN(C(=O)NCC(F)(F)F)CC1c1cnc2cnc3[nH]ccc3n12.Cl (centres unmarked) [amorphous hydrochloride] hygroscopic

* * *

# Assay Info: clinical
# Settings: human, urine and plasma, oral, 6 mg, CLr, 6 mg BID, Day 29, subjects with RA
Parameter Measured: CL renal (mL/min)
Reply with just the number (in mL/min).

Return reported CL renal; argument: CC[C@@H]1CN(C(=O)NCC(F)(F)F)C[C@@H]1c1cnc2cnc3[nH]ccc3n12 82.2
